# Assay method text: A qHTS for Small Molecule Inhibitors of Shiga Toxin (Confirmatory); further: nearly all actives have a fitted effect of over 75% in size
# Test settings: Cell-based Shiga toxin protection reporter assay; series mostly up to 38.3 µM
Records with an inconclusive call do not appear. Active and inactive are the calls of the source. The call rests on the fitted dose curve.
Choose one outcome from this list and give only that: active, inactive

Here are 5 compounds together with their reported answers.
- Cc1cc(Cl)ccc1NC(=O)CN1CCC(C(O)(c2ccccc2)c2ccccc2)CC1: inactive
- O=C(/C=C/c1cn(CC(O)CN2CCCCC2)c2ccccc12)c1cccs1 (centres undefined): inactive
- C/C1=C\[C@@H](O)C(C(C)C)C(OC(=O)c2ccc(O)cc2)C/C(C)=C/CC1 (some centres undefined): active
- COc1ccccc1C(=O)NNC(=O)c1ccc2ccccc2c1: active
- COc1ccccc1CN(Cc1cccnc1)S(=O)(=O)c1ccc(-n2cnnn2)c(OC)c1: inactive

Query: Hi team, can someone confirm the assay call for O=C(CSc1nnc(-c2ccccn2)o1)Nc1ccccc1C(F)(F)F ?
Reply: active

Query: Which outcome did this test record for the compound O=C(COc1ncnc2ccccc12)NCCC1=CCCCC1 ?
Reply: inactive

Query: Could you check what this test reported for O=C(Cc1c(F)cccc1Cl)c1ccc(O)cc1O ?
Reply: inactive

Query: Hi team, can someone confirm the assay call for Cc1cc(OCC(=O)NCc2ccccn2)cc(C)c1Br ?
Reply: inactive

Query: Record lookup: outcome of this test for Cc1nn(-c2ccc(Cl)cc2)c(N)c1C(O)(CSc1nccn1C)C(F)(F)F (centres undefined) ?
Reply: inactive

Query: Please indicate how the test categorized CCOC(=O)c1[nH]c2ccc(OC)cc2c1NC(=O)C(C)N1CCC2(CC1)OCCO2 (centres undefined) .
Reply: inactive

Query: Hi team, can someone confirm the assay call for NC(=O)C1CCN(C(=O)C2c3ccccc3C(=O)N3CCc4ccccc4C23)CC1 (centres undefined) ?
Reply: inactive

Query: // return assay outcome for Cc1cccc(N2CCN(C(=O)Cc3ccc(Br)cc3)CC2)c1C
Reply: active

Query: Test call for this compound, please: O=C(Nc1cccc(-c2csc(Nc3ccc(Cl)cc3)n2)c1)c1ccccc1
Reply: active

Query: Any idea what this test logged for N#Cc1ccc(N=c2ssnc2Cl)cc1 ?
Reply: inactive

Query: Please indicate how the test categorized CSCc1cc(N2CCOCC2)nc(SCc2ccc(Cl)cc2Cl)n1 .
Reply: inactive

Query: How was Cc1cc(N2CCCCCC2)nc(-c2ccccc2O)n1 classified in this test?
Reply: active

Query: For OC1C[N+]2(CCCCC2)C1 , what call appears in the results of this test?
Reply: inactive

Query: Dear colleague, could you share the recorded outcome for O=C(c1cc2c(s1)-c1ccccc1OC2)N1CCN(c2ccccc2)CC1 when you have a moment?
Reply: inactive

Query: Can you look up the reported call for Cc1cccc(C(=O)Nc2nnc(SCC(=O)NC3CC3)s2)c1 for me?
Reply: active

Query: Test call, this compound: CC1Cc2ccccc2N1Cc1cc(=O)n2ccsc2n1 (centres undefined)
Reply: inactive

Query: What call does the record list for CCCCOC(=O)c1ccc(N=Nc2c(C)c(C#N)c(O)[nH]c2=O)cc1 ?
Reply: active

====

# Assay method text: A qHTS for Small Molecule Inhibitors of Shiga Toxin (Confirmatory); further: nearly all actives have a fitted effect of over 75% in size
# Test settings: Cell-based Shiga toxin protection reporter assay; series mostly up to 38.3 µM
Records with an inconclusive call do not appear. Active and inactive are the calls of the source. Calls follow the shape of the full dose curve.
Hello, when you answer, please use one of the following outcomes: class 1 (active), class 0 (inactive)

Here are 2 molecules together with their reported answers.
- Cc1c(C(=O)Nc2nc3ccccc3[nH]2)oc2ccc(Br)cc12: class 1
- COC(=O)c1c(NC(=O)c2ccn(C)n2)sc2c1CCC2: class 1

Query: For this molecule, state the assay outcome: COc1ccc(NC(=O)CSc2nccn2-c2cccc(OC)c2)cc1
Reply: class 0

Query: For COc1cccc(C(=O)NNC(=O)C2CC(C)=C(C)CC2C(=O)O)c1 (stereo not given) , which call appears in the assay record?
Reply: class 0

FYI, the data here is from PubChem BioAssay AID2320.
